molecular target: HLA-A*0201 (Homo sapiens, UniProt P04439, D140Y/D185E/D98H/E176V/E277Q/G131W/G231S/I119V/I121R/I166T/I218V/L300P/L318F/N151K/N90K/P208A/P217A/Q86G/Q94H/R138H/R169H/T345S); test: Purified HLA class I peptide binding assay, A*0201; conditions: binding affinity, A2 supermotif peptides and analogs
pIC50: −log10 of the molar value.
ASSAY ENDPOINT: pIC50

CC(C)C[C@H](NC(=O)[C@H](Cc1ccccc1)NC(=O)[C@H](Cc1c[nH]cn1)NC(=O)[C@@H](NC(=O)[C@H](CC(C)C)NC(=O)[C@H](CCC(=O)O)NC(=O)[C@H](C)NC(=O)[C@H](CC(C)C)NC(=O)[C@@H](N)CCCCN)C(C)C)C(=O)O : 7.70
CSCC[C@H](NC(=O)[C@@H](N)CCCCN)C(=O)N[C@@H](C)C(=O)N[C@@H](CCC(=O)O)C(=O)N[C@@H](CC(C)C)C(=O)N[C@H](C(=O)N[C@@H](Cc1c[nH]cn1)C(=O)N[C@@H](Cc1ccccc1)C(=O)N[C@H](C(=O)O)C(C)C)C(C)C : 7.59

a: CSCC[C@H](NC(=O)[C@@H](N)CCCCN)C(=O)N[C@@H](C)C(=O)N[C@@H](CCC(=O)O)C(=O)N[C@@H](CC(C)C)C(=O)N[C@H](C(=O)N[C@@H](Cc1c[nH]cn1)C(=O)N[C@@H](Cc1ccccc1)C(=O)N[C@@H](CC(C)C)C(=O)O)C(C)C
b: CC[C@H](C)[C@H](NC(=O)[C@@H](N)CCCCN)C(=O)N[C@@H](Cc1c[nH]c2ccccc12)C(=O)N[C@@H](CCC(=O)O)C(=O)N[C@@H](CCC(=O)O)C(=O)N[C@@H](CC(C)C)C(=O)N[C@@H](CO)C(=O)N[C@@H](CCSC)C(=O)N[C@@H](CC(C)C)C(=O)O
Hi! Which is lower in terms of pIC50, the first one a or the second one b ? Give the label of your selection.
b
(b: 6.78, a: 7.62)

====

Readings of pIC50 for the listed compounds
molecular target: HLA-B*5301 (Homo sapiens, UniProt P01889, A329T/A93T/A95T/C349S/D201E/D98Y/E176V/E187L/E204Q/E69T/G107R/I218V/K202T/L105A/L119I/N104I/Q94N/R106L/R155S/R180L/S101N/S121R/S35A/S48A/T118I/V127L/V306I/V36M/Y140S/Y91F); experiment: Purified HLA class I peptide binding assay, B*5301; conditions: binding affinity, HLA-B7 supermotif-bearing peptides
Residues, ends and D or L forms follow the SMILES beside them.
Bear in mind: pIC50 is minus log10 of a mol/L concentration; give just that figure.

Worked examples, 2 compounds total:
CC[C@H](C)[C@H](NC(=O)[C@H](Cc1ccc(O)cc1)NC(=O)[C@H](CO)NC(=O)[C@@H](NC(=O)[C@H](CCC(=O)O)NC(=O)[C@@H](NC(=O)[C@H](CC(C)C)NC(=O)[C@H](C)NC(=O)[C@H](CCCNC(=N)N)NC(=O)[C@@H]1CCCN1C(=O)[C@@H](N)Cc1ccccc1)[C@@H](C)CC)[C@@H](C)O)C(=O)O (H-FPRALIETSYI-OH; N-terminus and C-terminus assumed) : 6.33
CC[C@H](C)[C@H](NC(=O)[C@@H]1CCCN1C(=O)[C@H](Cc1ccc(O)cc1)NC(=O)[C@H](CC(N)=O)NC(=O)[C@H](CCSC)NC(=O)[C@@H](NC(=O)[C@@H](NC(=O)[C@@H]1CCCN1C(=O)[C@@H](N)Cc1ccccc1)[C@@H](C)O)[C@@H](C)O)C(=O)O : 8.07

Here is the next item to consider.
Sample CC[C@H](C)[C@H](NC(=O)[C@H](CC(C)C)NC(=O)[C@H](CC(C)C)NC(=O)CNC(=O)[C@H](C)NC(=O)[C@H](CCCCN)NC(=O)[C@@H]1CCCN1C(=O)[C@@H](N)Cc1ccccc1)C(=O)N[C@H](C(=O)N[C@H](C(=O)O)C(C)C)[C@@H](C)CC (H-FPKAGLLIIV-OH; N-terminus and C-terminus assumed) — what was its pIC50?
5.33

====

biological target: HLA-B*5101 (B51) (Homo sapiens, UniProt P01889, A329T/A93T/A95T/C349S/D138N/D201E/D98Y/E187L/E204Q/E69T/G107R/I218V/K202T/L105A/L119W/N104I/Q94N/R106L/R155S/R180L/S101N/S121T/S35A/S48A/V306I/V36M/Y195H/Y91F); test: Purified HLA class I peptide binding assay, B51; settings: binding affinity, HLA-B7 supermotif-bearing peptides; read-out: B*5101 nM
ASSAY ENDPOINT: IC50 (nM)

Look over these answered cases.
CC[C@H](C)[C@H](NC(=O)[C@@H](NC(=O)[C@H](CC(C)C)NC(=O)[C@H](CC(C)C)NC(=O)CNC(=O)[C@@H](NC(=O)[C@H](CCCCN)NC(=O)[C@@H]1CCCN1C(=O)[C@@H](N)Cc1ccccc1)[C@@H](C)O)[C@@H](C)CC)C(=O)O : 32
CC[C@H](C)[C@H](NC(=O)[C@H](CC(C)C)NC(=O)[C@H](C)NC(=O)[C@H](CCCNC(=N)N)NC(=O)[C@@H]1CCCN1C(=O)[C@@H](N)Cc1ccccc1)C(=O)N[C@@H](CCC(=O)O)C(=O)N[C@H](C(=O)N[C@@H](CO)C(=O)N[C@@H](Cc1ccc(O)cc1)C(=O)N[C@H](C(=O)O)C(C)C)[C@@H](C)O : 128
CC(C)C[C@H](NC(=O)[C@H](C)NC(=O)[C@H](CCCNC(=N)N)NC(=O)[C@@H]1CCCN1C(=O)[C@@H](N)Cc1ccccc1)C(=O)N[C@H](C(=O)N[C@@H](CCC(=O)O)C(=O)N[C@H](C(=O)N[C@@H](CO)C(=O)N[C@@H](Cc1ccc(O)cc1)C(=O)N[C@H](C(=O)O)C(C)C)[C@@H](C)O)C(C)C : 204
CC[C@H](C)[C@H](NC(=O)[C@H](Cc1ccccc1)NC(=O)[C@@H](NC(=O)[C@H](Cc1ccc(O)cc1)NC(=O)[C@H](CC(C)C)NC(=O)[C@H](Cc1c[nH]cn1)NC(=O)CNC(=O)[C@@H](NC(=O)[C@@H]1CCCN1C(=O)[C@@H](N)Cc1ccccc1)[C@@H](C)CC)[C@@H](C)CC)C(=O)O : 5.7

I: CC[C@H](C)[C@H](NC(=O)[C@@H](NC(=O)[C@H](Cc1ccc(O)cc1)NC(=O)[C@H](CC(C)C)NC(=O)[C@H](Cc1c[nH]cn1)NC(=O)CNC(=O)[C@@H](NC(=O)[C@@H]1CCCN1C(=O)[C@@H](N)Cc1ccccc1)[C@@H](C)CC)[C@@H](C)CC)C(=O)O
II: CC[C@H](C)[C@H](NC(=O)[C@H](Cc1c[nH]cn1)NC(=O)[C@@H]1CCCN1C(=O)[C@@H](N)Cc1ccccc1)C(=O)N[C@@H](CO)C(=O)N[C@@H](Cc1ccc(O)cc1)C(=O)N1CCC[C@H]1C(=O)N1CCC[C@H]1C(=O)N[C@@H](CC(C)C)C(=O)O
In terms of reported IC50, does I or II have the smaller number? Give the label under which the chosen entry appears.
I

====

biological target: HLA-A*0202 (Homo sapiens, UniProt P04439, D140Y/D185E/D98H/E176V/E277Q/G131W/G231S/I119L/I121R/I166T/I218V/L180W/L300P/L318F/N151K/N90K/P208A/P217A/Q67R/Q86G/Q94H/R138H/R169H/T345S); assay: Purified HLA class I peptide binding assay, A*0202; conditions: binding affinity, A2 supermotif peptides and analogs
pIC50: −log10 of the molar value.
ASSAY ENDPOINT: pIC50

CC[C@H](C)[C@H](NC(=O)[C@@H](N)CCCCN)C(=O)N[C@@H](Cc1c[nH]c2ccccc12)C(=O)N[C@@H](CCC(=O)O)C(=O)N[C@@H](CCC(=O)O)C(=O)N[C@@H](CC(C)C)C(=O)N[C@@H](CO)C(=O)N[C@@H](CCSC)C(=O)N[C@@H](CC(C)C)C(=O)O : 6.19
CC(C)C[C@H](NC(=O)[C@H](Cc1ccccc1)NC(=O)[C@H](Cc1c[nH]cn1)NC(=O)[C@@H](NC(=O)[C@H](CC(C)C)NC(=O)[C@H](CCC(=O)O)NC(=O)[C@H](C)NC(=O)[C@H](CC(C)C)NC(=O)[C@@H](N)CCCCN)C(C)C)C(=O)O : 8.22

a: CSCC[C@H](NC(=O)[C@@H](N)CCCCN)C(=O)N[C@@H](C)C(=O)N[C@@H](CCC(=O)O)C(=O)N[C@@H](CC(C)C)C(=O)N[C@H](C(=O)N[C@@H](Cc1c[nH]cn1)C(=O)N[C@@H](Cc1ccccc1)C(=O)N[C@@H](CC(C)C)C(=O)O)C(C)C
b: CC(C)C[C@H](NC(=O)[C@H](CCC(=O)O)NC(=O)[C@H](C)NC(=O)[C@H](CC(C)C)NC(=O)[C@@H](N)CCCCN)C(=O)N[C@H](C(=O)N[C@@H](Cc1c[nH]cn1)C(=O)N[C@@H](Cc1ccccc1)C(=O)N[C@H](C(=O)O)C(C)C)C(C)C
c: CC[C@H](C)[C@H](NC(=O)[C@H](CC(C)C)NC(=O)[C@H](C)N)C(=O)N[C@@H](CCC(=O)O)C(=O)N[C@H](C(=O)N[C@@H](CO)C(=O)N[C@@H](Cc1ccc(O)cc1)C(=O)N[C@H](C(=O)N[C@@H](CCCCN)C(=O)N[C@H](C(=O)O)C(C)C)C(C)C)[C@@H](C)O
Sequence the entries by pIC50, beginning with the highest number. The response must list the labels following the requested ordering.
a, b, c
(a: 8.17, b: 7.89, c: 6.14)
